ASSAYED_SYSTEM: PAK4 (Homo sapiens, UniProt O96013)
Construct: purchased in-house thermal shift (DSF) kinase panel (SGC Frankfurt); Promega NanoBRET for AURKA/B/C
Sequence (O96013 291-591): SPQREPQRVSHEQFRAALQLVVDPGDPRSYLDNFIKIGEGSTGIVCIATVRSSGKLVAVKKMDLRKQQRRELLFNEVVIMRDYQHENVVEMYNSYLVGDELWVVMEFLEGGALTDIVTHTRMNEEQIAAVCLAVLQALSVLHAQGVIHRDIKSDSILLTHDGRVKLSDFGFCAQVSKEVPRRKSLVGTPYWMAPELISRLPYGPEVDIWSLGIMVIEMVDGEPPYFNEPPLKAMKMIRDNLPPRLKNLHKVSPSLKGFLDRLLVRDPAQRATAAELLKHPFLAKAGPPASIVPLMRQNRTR
ASSAY_SUMMARY: Thermal shift assay
Type: binding
REPORTED_CONDITIONS: compound 10 µM; n = 3; read-out: ΔTm PAK4
Entries and their ΔTm at 10 µM values follow.
Form field: result (number plus unit)

Example molecules with recorded ΔTm at 10 µM:
# SMILES_INPUT, TEST_RESULT
measured = [
    ("CCN1CCN(C(=O)Cc2ccc(Nc3ncc(F)c(Nc4ccc(C(=O)Nc5ccccc5)cc4)n3)cc2)CC1", "1.1 °C"),
    ("NC(=O)Cc1ccc(Nc2ncc(F)c(Nc3ccc(C(=O)Nc4ccccc4Cl)cc3)n2)cc1", "0.3 °C"),
    ("O=C(Cc1ccc(Nc2ncc(F)c(Nc3ccc(C(=O)Nc4ccccc4Cl)cc3)n2)cc1)NCCN1CCOCC1", "0.3 °C"),
]

Consider now this further molecule.
[ask] Under PAK4 (Homo sapiens, UniProt O96013): report ΔTm at 10 µM of CCN1CCN(C(=O)Cc2ccc(Nc3ncc(F)c(Nc4ccc(C(=O)O)cc4)n3)cc2)CC1 .
[reply] 0.1 °C

* * *

ASSAYED_SYSTEM: FGFR2 (Homo sapiens, UniProt P21802)
Construct: purchased in-house thermal shift (DSF) kinase panel (SGC Frankfurt); Promega NanoBRET for AURKA/B/C
Sequence (P21802 458-768): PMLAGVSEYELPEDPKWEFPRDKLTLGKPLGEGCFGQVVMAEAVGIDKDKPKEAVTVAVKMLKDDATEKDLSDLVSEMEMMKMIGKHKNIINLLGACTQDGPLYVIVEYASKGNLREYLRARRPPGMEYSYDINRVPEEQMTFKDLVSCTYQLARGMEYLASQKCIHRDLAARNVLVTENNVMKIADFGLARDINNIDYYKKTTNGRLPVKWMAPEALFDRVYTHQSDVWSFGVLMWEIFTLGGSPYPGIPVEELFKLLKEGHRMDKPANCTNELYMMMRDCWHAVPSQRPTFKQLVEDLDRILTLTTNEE
ASSAY_SUMMARY: Thermal shift assay
Format: binding
REPORTED_CONDITIONS: compound 10 µM; n = 3; read-out: ΔTm FGFR2
Entries and their ΔTm at 10 µM values follow.
Form field: result (number plus unit)

Example molecules with recorded ΔTm at 10 µM:
# SMILES_INPUT, ASSAYED_SYSTEM, ΔTm at 10 µM
measured = [
    ("NC(=O)Cc1ccc(Nc2ncc(F)c(Nc3ccc(C(=O)Nc4ccccc4Cl)cc3)n2)cc1", "FGFR2 (Homo sapiens, UniProt P21802)", "2.4 °C"),
    ("CCN1CCN(C(=O)Cc2ccc(Nc3ncc(F)c(Nc4ccc(C(=O)Nc5ccccc5)cc4)n3)cc2)CC1", "FGFR2 (Homo sapiens, UniProt P21802)", "2.9 °C"),
    ("O=C(Cc1ccc(Nc2ncc(F)c(Nc3ccc(C(=O)Nc4ccccc4Cl)cc3)n2)cc1)NCCN1CCOCC1", "FGFR2 (Homo sapiens, UniProt P21802)", "1.5 °C"),
]

[ask] Please report the measured ΔTm at 10 µM for CCN1CCN(C(=O)Cc2ccc(Nc3ncc(F)c(Nc4ccc(C(=O)O)cc4)n3)cc2)CC1
[reply] 2.9 °C

* * *

ASSAYED_SYSTEM: AURKC (Homo sapiens)
Construct: full-length wild-type AURKA, AURKB, and AURKC were obtained as plasmids cloned in frame with a C-terminal NanoLuc-fusion; host or cells: HEK293T
Sequence (Q9UQB9 whole entry, the tested form may be a part): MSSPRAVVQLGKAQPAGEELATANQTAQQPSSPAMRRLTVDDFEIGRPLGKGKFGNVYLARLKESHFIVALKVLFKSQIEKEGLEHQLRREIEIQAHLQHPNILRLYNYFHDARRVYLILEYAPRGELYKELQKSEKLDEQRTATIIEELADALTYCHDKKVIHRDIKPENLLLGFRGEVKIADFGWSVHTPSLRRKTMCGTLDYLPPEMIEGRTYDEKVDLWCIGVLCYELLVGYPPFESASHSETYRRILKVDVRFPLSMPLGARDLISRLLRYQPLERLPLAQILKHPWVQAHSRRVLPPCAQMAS
ASSAY_SUMMARY: NanoBRET assay in HEK293T cells
Format: cell-based
RECORDED_ENDPOINT: IC50

[ask] Please report the measured IC50 for CCN1CCN(C(=O)Cc2ccc(Nc3ncc(F)c(Nc4ccc(C(=O)Nc5ccccc5Cl)cc4)n3)cc2)CC1 [Aurora-A inhibitor I, reference compound]
[reply] > 50 µM

* * *

Entries and their ΔTm at 10 µM values follow.
ASSAYED_SYSTEM: STK39 (Homo sapiens, UniProt Q9UEW8)
Construct: purchased in-house thermal shift (DSF) kinase panel (SGC Frankfurt); Promega NanoBRET for AURKA/B/C
ASSAY_SUMMARY: Thermal shift assay
Type: binding
REPORTED_CONDITIONS: compound 10 µM; n = 3; read-out: ΔTm STK39
Write the number in °C without appending the unit.

Example molecules with recorded ΔTm at 10 µM:
# SMILES_INPUT, RECORDED_ENDPOINT, TEST_RESULT
measured = [
    ("O=C(Cc1ccc(Nc2ncc(F)c(Nc3ccc(C(=O)Nc4ccccc4Cl)cc3)n2)cc1)NCCN1CCOCC1", "ΔTm at 10 µM", 2.1),
    ("CCN1CCN(C(=O)Cc2ccc(Nc3ncc(F)c(Nc4ccc(C(=O)O)cc4)n3)cc2)CC1", "ΔTm at 10 µM", 0.2),
    ("NC(=O)Cc1ccc(Nc2ncc(F)c(Nc3ccc(C(=O)Nc4ccccc4Cl)cc3)n2)cc1", "ΔTm at 10 µM", 2.4),
]

Consider now this further molecule.
[ask] Please report the measured ΔTm at 10 µM for CCN1CCN(C(=O)Cc2ccc(Nc3ncc(F)c(Nc4ccc(C(=O)Nc5ccccc5)cc4)n3)cc2)CC1
[reply] 2.6

* * *

ASSAYED_SYSTEM: MAPK9 (Homo sapiens, UniProt P45984)
Construct: purchased in-house thermal shift (DSF) kinase panel (SGC Frankfurt); Promega NanoBRET for AURKA/B/C
Sequence (P45984 whole entry): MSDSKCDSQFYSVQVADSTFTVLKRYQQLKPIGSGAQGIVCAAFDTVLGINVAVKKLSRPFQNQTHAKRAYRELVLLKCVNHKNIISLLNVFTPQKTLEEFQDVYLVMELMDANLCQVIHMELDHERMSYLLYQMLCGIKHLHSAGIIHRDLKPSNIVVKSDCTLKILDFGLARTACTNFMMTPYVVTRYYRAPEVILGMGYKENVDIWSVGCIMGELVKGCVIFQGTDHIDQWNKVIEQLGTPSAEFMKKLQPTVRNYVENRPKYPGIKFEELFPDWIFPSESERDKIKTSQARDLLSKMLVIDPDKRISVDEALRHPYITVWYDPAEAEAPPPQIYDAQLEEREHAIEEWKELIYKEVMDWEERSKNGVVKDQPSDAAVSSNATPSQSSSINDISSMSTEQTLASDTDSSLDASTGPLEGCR
ASSAY_SUMMARY: Thermal shift assay
Type: binding
REPORTED_CONDITIONS: compound 10 µM; n = 3; read-out: ΔTm MAPK9
Entries and their ΔTm at 10 µM values follow.
Write the number in °C without appending the unit.

# SMILES_INPUT, TEST_RESULT
measured = [
    ("O=C(Cc1ccc(Nc2ncc(F)c(Nc3ccc(C(=O)Nc4ccccc4Cl)cc3)n2)cc1)NCCN1CCOCC1", 1.9),
    ("NC(=O)Cc1ccc(Nc2ncc(F)c(Nc3ccc(C(=O)Nc4ccccc4Cl)cc3)n2)cc1", 2.9),
    ("CCN1CCN(C(=O)Cc2ccc(Nc3ncc(F)c(Nc4ccc(C(=O)Nc5ccccc5)cc4)n3)cc2)CC1", 2.8),
]

Consider now this further compound.
[ask] Please report the measured ΔTm at 10 µM for CCN1CCN(C(=O)Cc2ccc(Nc3ncc(F)c(Nc4ccc(C(=O)O)cc4)n3)cc2)CC1
[reply] 3

* * *

Entries and their ΔTm at 10 µM values follow.
ASSAYED_SYSTEM: ULK3 (Homo sapiens, UniProt Q6PHR2)
Construct: purchased in-house thermal shift (DSF) kinase panel (SGC Frankfurt); Promega NanoBRET for AURKA/B/C
Sequence (Q6PHR2 1-277): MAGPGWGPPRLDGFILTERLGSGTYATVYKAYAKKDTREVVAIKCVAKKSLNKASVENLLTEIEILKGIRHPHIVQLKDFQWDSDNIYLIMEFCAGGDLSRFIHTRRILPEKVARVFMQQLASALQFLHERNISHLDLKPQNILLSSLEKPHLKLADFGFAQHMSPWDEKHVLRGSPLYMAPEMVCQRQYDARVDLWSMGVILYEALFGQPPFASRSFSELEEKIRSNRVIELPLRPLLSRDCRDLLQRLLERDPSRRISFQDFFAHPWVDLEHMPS
ASSAY_SUMMARY: Thermal shift assay
Assay type: binding
REPORTED_CONDITIONS: compound 10 µM; n = 3; read-out: ΔTm ULK3
Write the number in °C without appending the unit.

# SMILES_INPUT, TEST_RESULT
data = [
    ("NC(=O)Cc1ccc(Nc2ncc(F)c(Nc3ccc(C(=O)Nc4ccccc4Cl)cc3)n2)cc1", 9.4),
    ("CCN1CCN(C(=O)Cc2ccc(Nc3ncc(F)c(Nc4ccc(C(=O)O)cc4)n3)cc2)CC1", 4.3),
    ("O=C(Cc1ccc(Nc2ncc(F)c(Nc3ccc(C(=O)Nc4ccccc4Cl)cc3)n2)cc1)NCCN1CCOCC1", 6.2),
]

Consider now this further compound.
[ask] Please report the measured ΔTm at 10 µM for CCN1CCN(C(=O)Cc2ccc(Nc3ncc(F)c(Nc4ccc(C(=O)Nc5ccccc5)cc4)n3)cc2)CC1
[reply] 9.8

* * *

ASSAYED_SYSTEM: PIM1 (Homo sapiens, UniProt P11309)
Construct: purchased in-house thermal shift (DSF) kinase panel (SGC Frankfurt); Promega NanoBRET for AURKA/B/C
Sequence (P11309 whole entry): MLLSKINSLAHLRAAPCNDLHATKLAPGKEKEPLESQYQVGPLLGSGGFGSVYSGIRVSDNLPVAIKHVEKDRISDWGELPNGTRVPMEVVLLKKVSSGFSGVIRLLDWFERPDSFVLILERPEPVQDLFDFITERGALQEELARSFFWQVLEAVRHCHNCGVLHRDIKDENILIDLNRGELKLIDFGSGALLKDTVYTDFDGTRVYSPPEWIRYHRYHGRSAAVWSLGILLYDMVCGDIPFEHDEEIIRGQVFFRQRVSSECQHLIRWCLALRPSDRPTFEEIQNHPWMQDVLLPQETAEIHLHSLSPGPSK
ASSAY_SUMMARY: Thermal shift assay
Type: binding
REPORTED_CONDITIONS: compound 10 µM; n = 3; read-out: ΔTm PIM1
Entries and their ΔTm at 10 µM values follow.
Write the number in °C without appending the unit.

# COMPOUND, QUANTITY_UNIT, ΔTm at 10 µM
data = [
    ("CCN1CCN(C(=O)Cc2ccc(Nc3ncc(F)c(Nc4ccc(C(=O)O)cc4)n3)cc2)CC1 [ERJ2-12]", "°C", 1.1),
    ("CCN1CCN(C(=O)Cc2ccc(Nc3ncc(F)c(Nc4ccc(C(=O)Nc5ccccc5)cc4)n3)cc2)CC1 [ERJ2-11]", "°C", 0.4),
    ("NC(=O)Cc1ccc(Nc2ncc(F)c(Nc3ccc(C(=O)Nc4ccccc4Cl)cc3)n2)cc1 [ERJ2-06]", "°C", 0.2),
]

[ask] Please report the measured ΔTm at 10 µM for O=C(Cc1ccc(Nc2ncc(F)c(Nc3ccc(C(=O)Nc4ccccc4Cl)cc3)n2)cc1)NCCN1CCOCC1 [ERJ2-04]
[reply] -0.2

* * *

ASSAYED_SYSTEM: DYRK1A (Homo sapiens)
Construct: purchased in-house thermal shift (DSF) kinase panel (SGC Frankfurt); Promega NanoBRET for AURKA/B/C
ASSAY_SUMMARY: Thermal shift assay
Format: binding
REPORTED_CONDITIONS: compound 10 µM; n = 3; read-out: ΔTm DYRK1A
RECORDED_ENDPOINT: ΔTm at 10 µM (°C)
Write the number in °C without appending the unit.

Example compounds with recorded ΔTm at 10 µM:
# SMILES_INPUT, ASSAYED_SYSTEM, TEST_RESULT
records = [
    ("CCN1CCN(C(=O)Cc2ccc(Nc3ncc(F)c(Nc4ccc(C(=O)Nc5ccccc5)cc4)n3)cc2)CC1", "DYRK1A (Homo sapiens)", -0.6),
    ("NC(=O)Cc1ccc(Nc2ncc(F)c(Nc3ccc(C(=O)Nc4ccccc4Cl)cc3)n2)cc1", "DYRK1A (Homo sapiens)", 0.8),
    ("CCN1CCN(C(=O)Cc2ccc(Nc3ncc(F)c(Nc4ccc(C(=O)O)cc4)n3)cc2)CC1", "DYRK1A (Homo sapiens)", -1.3),
]

Consider now this further compound.
[ask] Please report the measured ΔTm at 10 µM for O=C(Cc1ccc(Nc2ncc(F)c(Nc3ccc(C(=O)Nc4ccccc4Cl)cc3)n2)cc1)NCCN1CCOCC1
[reply] -0.7
